Attribution: PubChem BioAssay

Experiment: differential killing of epithelial or mesenchymal cells, primary screen, imaging, PC-3E GFP, TEM4-18 mCherry, co-culture (AID 1345086);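 note: cells exposed to compound for 72 h before imaging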
Details: imaging cell counts, measured here: mesenchymal TEM4-18 mCherry cell survival, at 1 µM
assay-endpoint: normalised cell number
The answer should be a number; do not append a unit.

Solved entries:
OC[C@H]1O[C@H](O[C@]2(CCl)O[C@H](CCl)[C@@H](O)[C@@H]2O)[C@H](O)[C@@H](O)[C@H]1Cl : 1.05
COC(=O)C[C@H]1C(C)(C)C(=O)[C@@H]2CC3=C(CC[C@]4(C)C3=CC(=O)O[C@H]4c3ccoc3)C1(C)C2=O : 1.06
CCC(C)[C@H]1O[C@]2(C=C[C@@H]1C)C[C@@H]1C[C@@H](C/C=C(\C)[C@@H](OC3C[C@H](OC)C(O[C@H]4C[C@H](OC)[C@@H](O)[C@H](C)O4)[C@H](C)O3)[C@@H](C)/C=C/C=C3\COC4[C@H](OC)C(C)=C[C@@H](C(=O)O1)[C@]34O)O2 (stereo not given in full) : 0.93

Q: Consider the compound shown here: CCCc1cc(OC)c2c(c1)OCO2 What is its recorded normalised cell number?
Result: 0.98

Q: What does the data say about its normalised cell number? Entry: CCN1CCN(C(=O)NC(C(=O)NC2C(=O)N3C(C(=O)O)=C(CSc4nnnn4C)CSC23)c2ccc(O)cc2)C(=O)C1=O (stereo not given)
Result: 1.22

Q: Endpoint output: normalised cell number of COc1cc([C@@H]2c3cc4c(cc3C(O[C@@H]3O[C@@H]5CO[C@@H](c6cccs6)OC5[C@H](O)[C@H]3O)C3COC(=O)[C@@H]32)OCO4)cc(OC)c1O (stereo not given in full) . Value?
Result: 0.36

Q: Requested read-out: normalised cell number. Entry: CC1=C(/C=C/C(C)=C/C=C/C(C)=C/C=C/C=C(C)/C=C/C=C(C)/C=C/C2=C(C)C(=O)CCC2(C)C)C(C)(C)CCC1=O
Result: 0.9

Q: Bench note: what normalised cell number did CC(CCC(=O)O)[C@H]1CCC2C3CC[C@@H]4C[C@H](O)CC[C@]4(C)C3C[C@H](O)[C@@]21C (stereo not given in full) show?
Result: 0.91

Q: Find the recorded normalised cell number belonging to COc1c(F)c(F)cc2c(=S)c(C(=O)O)cn(C3CC3)c12 and report it.
Result: 1.04

Q: Look at this compound and give its reported normalised cell number. COCC1O[C@@H](OC)[C@@H](OCc2ccccc2)[C@@H](OCc2ccccc2)C1O (stereo not given in full)
Result: 1.01

Q: Request the reported normalised cell number associated with COc1ccc(-c2oc3cc(OC)c(OC)c(OC)c3c(=O)c2OC)cc1OC
Result: 1.08

Q: What value of normalised cell number has been reported for the following compound? CC(=O)OCC(=O)[C@@]1(O)[C@@H](C)CC2C3CCC4=CC(=O)C=C[C@]4(C)[C@@]3(F)[C@@H](O)C[C@@]21C (stereo not given in full)
Result: 1.13

Q: Fill blank: measured normalised cell number of the compound CCC(=O)O[C@]1(C(=O)CCl)[C@@H](C)CC2C3CCC4=CC(=O)C=C[C@]4(C)[C@@]3(F)[C@@H](O)C[C@@]21C (stereo not given in full) is ____.
Result: 1.25

Q: Which normalised cell number value is on record for O=C(O)C1CCCNC1 (stereo not given) ?
Result: 1.08

Q: # normalised cell number lookup, item CC(=O)NCCc1ccc(O)c(-c2c(O)c(O)c3c(c2O)C(=O)c2c(cc(O)c(C(=O)O)c2C(=O)O)C3=O)c1
Result: 1.07

---

Experiment: growth inhibition of DIPG glioma cells, dose response, cell-based, SU-DIPG-IV, MIPE4.0, CellTiter-Glo, qHTS (AID 1347063);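 note: compound exposure lasted 48 hours before the viability readout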
Conditions: SU-DIPG-IV viability, CellTiter-Glo ATP luminescence
Records with an inconclusive call do not appear. The source made the active and inactive calls. No cut-off is given here; in the data, nearly all actives have AC50 up to about 30 µM.
Answer with one of the outcomes given here: t (active), f (inactive)

Q: Dear all, I need the recorded test outcome for CC(Oc1ccc(O)cc1)(P(=O)(O)O)P(=O)(O)O , thank you.
Result: f

Q: Returns: the outcome recorded for COc1cccc2c1C(=O)c1c(O)c3c(c(O)c1C2=O)C[C@@](O)(C(=O)CO)C[C@@H]3O[C@H]1C[C@H](N)[C@@H](O)[C@H](C)O1 in this assay.
Result: t

Q: Give the logged outcome of this assay for the following compound: C=CCc1ccc(O)c(-c2ccc(O)c(CC=C)c2)c1
Result: t

Q: Dear colleague, could you share the recorded outcome for CC[C@@]1(O)C(=O)OCc2c1cc1n(c2=O)Cc2cc3cc(O)ccc3nc2-1 when you have a moment?
Result: t

Q: Kindly provide the recorded test outcome for the following compound: CC(=O)O[C@H]1C(=O)[C@@]2(C)C([C@H](OC(=O)c3ccccc3)[C@]3(O)C[C@H](OC(=O)[C@H](O)[C@@H](NC(=O)c4ccccc4)c4ccccc4)C(C)=C1C3(C)C)[C@]1(OC(C)=O)CO[C@@H]1C[C@@H]2O (some centres undefined)
Result: f

---

Experiment: fluorescence interference in NS3h assay format, artefact control for HCV NS3 helicase inhibitor project, biochemical, NIH Clinical Collection (AID 743272);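 note: HCV NS3 helicase with a Cy5 labelled single stranded DNA probe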
Details: fluorescence interference counterscreen, stronger effect = lower value
Calls of active or inactive are those of the source. No rule for the calls is given here.
Overview of reported fluorescence ratio across a group of compounds:

Worked examples follow.
Cc1c(C(=O)NN2CCCCC2)nn(-c2ccc(Cl)cc2Cl)c1-c1ccc(I)cc1 : 0.92 (inactive)
CC(Cc1ccc(O)c(O)c1)(NN)C(=O)O (stereo unspecified) : 1.05 (inactive)
Cc1cc(=O)oc2cc(NC(=O)C3CCC(=O)N3)ccc12 (stereo unspecified) : 0.91 (inactive)
COc1cc([C@@H]2c3cc4c(cc3[C@@H](O[C@@H]3O[C@@H]5CO[C@@H](C)O[C@H]5[C@H](O)[C@H]3O)[C@H]3COC(=O)[C@H]23)OCO4)cc(OC)c1O : 1.01 (inactive)
CC1(C)SC2C(NC(=O)Cc3ccccc3)C(=O)N2C1C(=O)O (stereo unspecified) : 1 (inactive)

Q: Return reported fluorescence ratio; argument: Nc1ncnc2c1ncn2[C@@H]1O[C@H](CO)C[C@@H]1O
Result: 0.87 (inactive)

Q: # get_value(readout='fluorescence ratio', item= NCC(O)c1ccc(O)c(O)c1 (stereo unspecified) )
Result: 0.99 (inactive)

Q: # input compound: CCC[C@@H]1C[C@@H](C(=O)N[C@H]([C@@H](C)O)[C@H]2O[C@H](SC)[C@H](O)[C@@H](O)C2O)N(C)C1 (stereo partly specified) ; wanted: its fluorescence ratio
Result: 1.03 (inactive)

Q: Which fluorescence ratio value belongs to C[C@]12CC3CC(N)(C1)C[C@@](C)(C3)C2 ?
Result: 0.95 (inactive)

Q: Query (compound): CCC(C)(C)N=C(NC#N)Nc1cccnc1 ; field requested: fluorescence ratio
Result: 0.92 (inactive)

Q: I'd like to know its fluorescence ratio. The compound in question is CCOC(=O)[C@@H](CCc1ccccc1)N[C@@H](C)C(=O)N1CCC[C@H]1C(=O)O
Result: 1 (inactive)

---

Here, each record is paired with measured growth inhibition data.
Test: inhibition of 3D7 malaria parasite growth – strain 3D7 (AID 2306);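 note: 0% = DMSO wells and 100% = chloroquine plus artemisinin control wells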
Settings: P. falciparum 3D7 erythrocytic growth, LDH absorbance, 72 h; at 2 µM; stronger effect = higher value
State just the number; it will be interpreted in %.

# count of solved cases: 5
C(=N\Nc1nccc2sc(-c3ccccc3)cc12)/c1cccnc1 : 97
NCCCOc1cnc(-c2ccccc2)c2nc(-c3nonc3N)n(CCc3ccccc3)c12 : 93
N#CCc1ccc(Nc2nccc(Nc3ccc(Oc4ccccc4)cc3)n2)cc1 : 98
O=C(Nc1cccc(-c2nn3ncccc3c2-c2ccnc(Nc3cccc(C(F)(F)F)c3)n2)c1)c1c(F)cccc1F : 97
Clc1cc(Nc2ncnc3cc(C#C[C@H]4CCCN4)sc23)cc2[nH]c(Cc3ccccc3)nc12 : 91

Q: I have this compound here, O=C(Nc1ccc(C(F)(F)F)cc1)c1cc(Cl)cc2[nH]c(C(F)(F)F)nc12 , and I need its recorded growth inhibition.
Result: 102

Q: # get_value(readout='growth inhibition', item= O=C(/C=C/c1ccc(Cl)c(Cl)c1)NCCCCCN1CCCN(C(=O)Nc2ccc(C(F)(F)F)cc2)CC1 )
Result: 102

Q: Quick check: growth inhibition of Cc1ccc(-n2c(C)cc(C(=O)CN3C(=O)NC(Cc4ccccc4)C3=O)c2C)cc1 (centres undefined) ?
Result: 82

Q: Which growth inhibition is reported for this compound? O=C(NCCc1ccccc1F)c1cc(Br)cc(N2CCN(c3ccncc3)CC2)c1
Result: 97

---

Parameter inhibition: see the listing below.
Target: L-lactate dehydrogenase (Plasmodium falciparum (isolate CDC / Honduras)) (UniProt Q27743)
Sequence (Q27743 whole entry, looked up): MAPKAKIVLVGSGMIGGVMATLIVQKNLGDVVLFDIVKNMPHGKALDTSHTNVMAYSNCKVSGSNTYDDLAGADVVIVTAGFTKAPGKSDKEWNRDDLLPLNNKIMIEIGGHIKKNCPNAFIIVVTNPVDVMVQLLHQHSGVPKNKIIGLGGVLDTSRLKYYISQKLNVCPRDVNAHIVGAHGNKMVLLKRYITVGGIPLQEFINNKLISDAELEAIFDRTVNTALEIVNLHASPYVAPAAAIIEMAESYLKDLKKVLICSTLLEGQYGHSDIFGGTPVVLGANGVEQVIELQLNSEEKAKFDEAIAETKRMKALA
Experiment: PfLDH activity inhibition – cell lysate, 3D7 strain, counter-screen for P. falciparum growth inhibition project (AID 2304);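 note: 0% = vehicle and 100% = reference inhibitor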
Settings: P. falciparum 3D7 crude extract, LDH APAD/NBT absorbance; at 2 µM; stronger effect = higher value
Give a bare numeral; the unit % is implied.

Q: Data request, read-out inhibition, for Cc1cc(N[C@@H](Cc2ccccc2)C(=O)Nc2ccccc2)nc(NCC2CCCCC2)n1
Result: 1

Q: Can you look up the measured inhibition of Cc1ccccc1C1CCN(C2CCC(NC(=O)c3csc(-c4cccc(Cl)c4)n3)CC2)CC1 (centres undefined) for me?
Result: 3

Q: inhibition for CCCCCCn1c2c(c(=N)c3c1CCC3)CCC2 ?
Result: -3

Q: Fill in the blank: the reported inhibition of COc1cc2ncnc(Nc3ccc(Br)c(Cl)c3)c2cc1OC is ____.
Result: 6

Q: Give its inhibition value. Item: O=c1c2ccc(Sc3ccccn3)cc2n(-c2ccccc2)c2cc(Sc3ccccn3)ccc12
Result: -3

Q: Please give the measured inhibition for this compound: COc1ccc(Nc2ncc(C#N)c(Nc3ccccc3C(N)=O)n2)cc1N1CCN(C)CC1
Result: -1

Q: # lookup: inhibition of COc1cccc2cc(C(=O)N[C@@H](CC(C)C)C(=O)N[C@H](/C=N/N3CCOC3=O)CC(C)C)oc12
Result: -2

Q: So what does the record say about inhibition for Cc1ccc(NC(=O)c2ccc3ncccc3c2)cc1OC1CCN(Cc2ccsc2)C1 (centres undefined) ?
Result: -3

Q: Give the measured inhibition of FC(F)(F)c1ccc2nc(-c3cccc(-c4ccc(CNCc5cnn(-c6ccccc6)n5)cc4)c3)[nH]c2c1 .
Result: -4
